Test Details: NCI Yeast Anticancer Drug Screen. Data for the sgs1 strain (AID 173);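 also: 0% = growth of vehicle-only control cultures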
Particulars: S. cerevisiae sgs1 mutant, at 11.0 µM, active compounds read high
This is part of a sample that, as a whole, favours compounds with a hit. Of some 79,000 tested, about 15% had one in any assay.
Measured Metric: growth inhibition (%)
Express it in %; write the number only.

Example molecules with recorded growth inhibition:
CSc1nc(C)c(CCOC(C)=O)c(N=P(c2ccccc2)(c2ccccc2)c2ccccc2)n1    -4
O=c1c2ccccc2nc(-c2ccccc2)n1O    93
O=[N+]([O-])c1cc(S(=O)(=O)Nc2ccccc2)ccc1Nc1ccccc1    91
CCn1c(O)c(C=Nc2ccccc2)s/c1=N/Nc1nc(-c2ccccc2)cs1    13
Cc1ccc(N=Nc2ccc(O)c(=O)cc2)cc1    57

Reported growth inhibition ( `CC[N+](CC)(CC)c1ccccc1` ) = -22

Reported growth inhibition ( CCOC(=O)COc1c(OC)cc(C2C3=C(COC3=O)Oc3cc4c(cc32)OCO4)cc1OC (stereo unspecified) ) = 1

Reported growth inhibition ( `NC(N)=NS(=O)(=O)c1ccc(Nc2c3ccccc3nc3c(C(=O)NCCO)cccc23)cc1` ) = 0

Reported growth inhibition ( C=C1CCC(O)C/C1=C/C=C1\CCCC2(C)C1CCC2C(C)CCCC(C)C (stereo unspecified) ) = -25

Reported growth inhibition ( `O=c1[nH]c(-c2ccccc2)nc2c1sc1nc3ccccc3n12` ) = -39

Reported growth inhibition ( `c1ccc(Cc2cc(-c3ccccc3)n[nH]2)cc1` ) = -5

###

Test Details: NCI Yeast Anticancer Drug Screen. Data for the mgt1 strain (AID 153)
Particulars: S. cerevisiae mgt1 mutant growth inhibition; at 1.2 µM; active compounds read high
The panel holds about 79,000 compounds, 15% with a hit somewhere; the sample as a whole holds those more often.
Examples of compounds with documented growth inhibition follow.
Express it in %; write the number only.

CNC(=O)OCc1c(COC(=O)NC)c(-c2ccc(Cl)c(Cl)c2)n2c1SCC2    -4
Cc1ccc(Cl)cc1NC(=O)OCCN(C)C(=O)Nc1cc(Cl)ccc1C    -29
Cn1c(-c2ccc(/C=N\N3CCN(/N=C/c4ccc(-c5c[n+]6ccccc6n5C)cc4)CC3)cc2)c[n+]2ccccc12    -30
CC1=CC(=C(c2ccc(N)cc2)c2ccc(N)cc2)C=CC1=N    -9
CN1CCN(C(=O)/C=C/C(=O)c2ccccc2)CC1    2

Reported growth inhibition ( `COc1cc(CSc2ccc(O)cc2)cc(O)c1O` ) = 1

Reported growth inhibition ( O=C1OC(C2=CC(=O)c3ccccc3C2=O)C(Cl)=C1Cl (stereo unspecified) ) = -1

Reported growth inhibition ( `CCc1nc2ccc(NCCN(C)C)c3c(=O)c4ccccc4n1c23` ) = 37

###

Test Details: NCI Yeast Anticancer Drug Screen. Data for the mgt1 strain (AID 153)
Particulars: S. cerevisiae mgt1 mutant growth inhibition; at 11.0 µM
About 79,000 compounds went through this panel and 15% of them were active in at least one assay; those are over-represented in the sample as a whole. Calls of active or inactive are those of the source. Cut-off read from the data, not from the text of the source: active = growth inhibition above about 70%; inactive = the rest.
I would appreciate it if you answered using one of these outcomes: YES = active, NO = inactive

Worked examples, 5 compounds total:
COc1ccc(C(=O)Oc2ccccc2Br)cc1    NO
Cc1ccc(NC(=O)/C(CC2N=c3c(ccc4c(O)c5ccccc5c(O)c34)=NC2O)=N/NC(C)(C)C)cc1 (configuration not stated)    NO
OC(/C=C/c1ccccc1)(Cc1cc(-c2ccccc2)n[nH]1)c1ccccc1 (configuration not stated)    NO
COC(=O)CCC(NC(=S)N/N=C(\C)c1ccccn1)C(=O)OC (configuration not stated)    NO
Cn1c(=O)c2c(nc(N)n2C2OC(CO)C(O)C2O)n(C)c1=O (configuration not stated)    NO

Given `O=C(O)c1ccc(N2C(=O)C=CC2=O)cc1` , state the outcome it received in this test.
NO

Given `CCn1c(O)c(C=Nc2ccccc2)s/c1=N/Nc1nc(-c2ccccc2)cs1` , state the outcome it received in this test.
NO

Given CCOC(=O)[C@H]1Nc2ccc(OC)cc2C2c3ccccc3CC21 (some centres not stated) , state the outcome it received in this test.
NO

Given `CN(C)CCNC(=O)c1cccc2cc([N+](=O)[O-])ccc12` , state the outcome it received in this test.
NO

Given `O=C1C=C(Cl)C(=O)N1c1cccc(Cl)c1` , state the outcome it received in this test.
YES

Given `Cc1cc(S(=O)(=O)Nc2nnc3cnc4ccccc4n23)c(S)cc1Cl` , state the outcome it received in this test.
NO

###

Examples of molecules with documented growth inhibition follow.
Test Details: NCI Yeast Anticancer Drug Screen. Data for the CLN2oe strain (AID 163);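 also: 0% = growth of vehicle-only control cultures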
Particulars: S. cerevisiae CLN2oe strain, at 33.0 µM, active compounds read high
Experimental: Growth inhibition of yeast strains with defined genetic alterations is measured as a screen for potential anti-cancer activity. Selected strains with alterations in DNA damage repair or cell cycle control were exposed to compounds and growth inhibition was measured relative to vehicle treated controls. The strain used in this assay is CLN2oe
The panel holds about 79,000 compounds, 15% with a hit somewhere; the sample as a whole holds those more often. Calls of active or inactive are those of the source. Rule as the data show it: active = growth inhibition above about 70%; inactive = the rest.

Example molecules with recorded growth inhibition:
c1ccc2cc(NCNc3ccc4ccccc4c3)ccc2c1    -1% (inactive)
Nc1nc2ccc(NCc3ccc(C(=O)NC(CCC(=O)O)C(=O)O)cc3)cc2c(=O)[nH]1 (stereo not drawn)    2% (inactive)
O=C1C(=O)c2ccccc2C(O)=C1C(C1=C(O)c2ccccc2C(=O)C1=O)c1ccc(Cl)cc1    66% (inactive)
CCOC(=N)c1ccc(O)c(OC)c1    -3% (inactive)
COc1oc(C(=O)NC2CCCCC2)c(-c2ccc(Cl)cc2)c1S(=O)(=O)c1ccccc1    91% (active)
CCCCCCCCCCCCCCCCOP(=O)(O)OCC(N)C(=O)O (stereo not drawn)    94% (active)
Cc1c(C(C)C)cc(OCCO)cc1C(C)C    0% (inactive)

Now for another entry.
Reported growth inhibition ( `CCOC(=O)C#Cc1ccc([N+](=O)[O-])cc1` ) = 2% (inactive)

###

Test Details: NCI Yeast Anticancer Drug Screen. Data for the mec2-1 strain (AID 157)
Particulars: S. cerevisiae mec2-1 strain, at 3.7 µM, active compounds read high
Method: Growth inhibition of yeast strains with defined genetic alterations is measured as a screen for potential anti-cancer activity. Selected strains with alterations in DNA damage repair or cell cycle control were exposed to compounds and growth inhibition was measured relative to vehicle treated controls. The strain used in this assay is mec2-1
Compounds without any hit were thinned out: in the full panel of roughly 79,000, 15% have a hit.
Measured Metric: growth inhibition (%)
Express it in %; write the number only.

Cc1cc(=O)oc2c(C)c3occc(=O)c3cc12    0
O=C(O)Cc1cc(F)ccc1C(=O)O    0
CN(C)c1nc(=Nc2cccc(Cl)c2)ss1    28

Reported growth inhibition ( COc1nc2c(c(=O)n1C)N=C(c1ccccc1)[C@H](C(CC(=O)c1ccccc1)c1ccccc1)C(c1ccccc1)N2 (some centres not stated) ) = -9

Reported growth inhibition ( COc1ccc(C(NCCNC(c2ccc(OC)c(OC)c2)c2cc3c(cc2O)OCO3)c2cc3c(cc2O)OCO3)cc1OC (configuration not stated) ) = 1

Reported growth inhibition ( COc1ccc(C2C3=C(COC3=O)OC(C)(C)Oc3cc4c(cc32)OCO4)cc1OC (configuration not stated) ) = 29

Reported growth inhibition ( `Cc1ccc(S/C(=C\C(=O)O)c2ccccc2)cc1` ) = -3

Reported growth inhibition ( `COc1ccc(C(=O)C(CN(C)C)CN(C)C)cc1` ) = -9

Reported growth inhibition ( `COc1ccc2c(c1)n([O-])c1ccccc1[n+]2=O` ) = 7

Reported growth inhibition ( Cn1c(=O)c2c(nc(N)n2C2OC(CO)C(O)C2O)n(C)c1=O (configuration not stated) ) = 1

Reported growth inhibition ( `COc1ccc2[nH]cc([C@@H]3C4CCC(C4)[C@H]3NCc3cccc(CN[C@H]4C5CCC(C5)[C@@H]4c4c[nH]c5ccc(OC)cc45)c3)c2c1` ) = -59

Reported growth inhibition ( CCOC(=O)CC1(C(=O)OCC)c2[nH]c3ccccc3c2CCN1Cc1ccccc1 (configuration not stated) ) = -4

Reported growth inhibition ( `CC(C)(CCCCC(C)(C)[N+](C)(C)C)[N+](C)(C)C` ) = 1

Reported growth inhibition ( `COc1ccc([N+](=O)[O-])c2c(NCCCN(C)C)c3ccccc3nc12` ) = 4

Reported growth inhibition ( `CN(C)CCNC(=O)c1cccc2cc([N+](=O)[O-])ccc12` ) = 8

Reported growth inhibition ( `C/C=C/SC(=Nc1ccccc1)Nc1ccccc1` ) = -5

Reported growth inhibition ( `CSc1nnc(SC)nn1` ) = 1

Reported growth inhibition ( CC1SC2(C(=O)Nc3ccc(Cl)cc32)N(c2ccc(Cl)cc2)C1=O (configuration not stated) ) = 3

Reported growth inhibition ( C[CH2][Sn]([CH2]C)([O]C(=O)C(N)Cc1ccccc1)[O]C(=O)C(N)Cc1ccccc1 (configuration not stated) ) = 3

Reported growth inhibition ( `CCOC1(c2cccc([N+](=O)[O-])c2)c2ccccc2Oc2ccccc21` ) = 2

Reported growth inhibition ( `CCOC1=C/C(=N\Nc2ccc([N+](=O)[O-])cc2)CCC1` ) = 5

Reported growth inhibition ( `CC(C)CN(CC(C)C)C(=O)c1ccc(Cl)c(Cl)c1` ) = 1
